Sourced from ChEMBL document CHEMBL1123591

So I've got a bunch of compounds here, and I need their Relative velocity values.
# tested target: Tyrosine 3-monooxygenase (Bos taurus) (UniProt P17289)
# Sequence (P17289 whole entry): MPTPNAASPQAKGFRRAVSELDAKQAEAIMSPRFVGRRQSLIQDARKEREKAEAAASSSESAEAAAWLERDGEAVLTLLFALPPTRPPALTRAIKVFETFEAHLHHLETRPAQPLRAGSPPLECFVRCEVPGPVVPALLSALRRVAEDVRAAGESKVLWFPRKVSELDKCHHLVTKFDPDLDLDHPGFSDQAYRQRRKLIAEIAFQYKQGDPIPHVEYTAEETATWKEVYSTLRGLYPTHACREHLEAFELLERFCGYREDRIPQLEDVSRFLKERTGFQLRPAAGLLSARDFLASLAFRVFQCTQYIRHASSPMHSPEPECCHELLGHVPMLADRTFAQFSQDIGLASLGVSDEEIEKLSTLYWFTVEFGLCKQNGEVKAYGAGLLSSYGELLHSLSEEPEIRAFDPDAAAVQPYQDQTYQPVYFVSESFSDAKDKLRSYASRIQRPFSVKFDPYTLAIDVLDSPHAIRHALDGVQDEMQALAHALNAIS
# assay method text: Cofactor activity in bovine adrenal medulla tyrosine hydroxylase assay as relative velocity
Please respond with the number in % and leave the unit unwritten.

# input Give the measured Relative velocity for CCCOCC1CNc2nc(N)nc(O)c2N1 (stereo not drawn)
# output 92

# input Give the measured Relative velocity for CC(C)(C)OCC1CNc2nc(N)nc(O)c2N1 (stereo not drawn)
# output 130

# input Give the measured Relative velocity for CCOCC1CNc2nc(N)nc(O)c2N1 (stereo not drawn)
# output 154

# input Give the measured Relative velocity for COCCOCC1CNc2nc(N)nc(O)c2N1 (stereo not drawn)
# output 131

# input Give the measured Relative velocity for CC(O)C(O)C1CNc2nc(N)nc(O)c2N1 (stereo not drawn)
# output 100

# input Give the measured Relative velocity for CC(C)OCC1CNc2nc(N)nc(O)c2N1 (stereo not drawn)
# output 137

# input Give the measured Relative velocity for CCCCCCCCOCC1CNc2nc(N)nc(O)c2N1 (stereo not drawn)
# output 48

# input Give the measured Relative velocity for CC1(C)CNc2nc(N)nc(O)c2N1
# output 119

# input Give the measured Relative velocity for CC1CNc2nc(N)[nH]c(=O)c2N1 (stereo not drawn)
# output 154

# input Give the measured Relative velocity for CC(C)COCC1CNc2nc(N)nc(O)c2N1 (stereo not drawn)
# output 110

# input Give the measured Relative velocity for CCCCOCC1CNc2nc(N)nc(O)c2N1 (stereo not drawn)
# output 135

# input Give the measured Relative velocity for CCCCCOCC1CNc2nc(N)nc(O)c2N1 (stereo not drawn)
# output 85

# input Give the measured Relative velocity for COCC1CNc2nc(N)nc(O)c2N1 (stereo not drawn)
# output 126
